residual activity reference
tgt: STK33 (human) (UniProt Q9BYT3)
Sequence (Q9BYT3 whole entry, looked up): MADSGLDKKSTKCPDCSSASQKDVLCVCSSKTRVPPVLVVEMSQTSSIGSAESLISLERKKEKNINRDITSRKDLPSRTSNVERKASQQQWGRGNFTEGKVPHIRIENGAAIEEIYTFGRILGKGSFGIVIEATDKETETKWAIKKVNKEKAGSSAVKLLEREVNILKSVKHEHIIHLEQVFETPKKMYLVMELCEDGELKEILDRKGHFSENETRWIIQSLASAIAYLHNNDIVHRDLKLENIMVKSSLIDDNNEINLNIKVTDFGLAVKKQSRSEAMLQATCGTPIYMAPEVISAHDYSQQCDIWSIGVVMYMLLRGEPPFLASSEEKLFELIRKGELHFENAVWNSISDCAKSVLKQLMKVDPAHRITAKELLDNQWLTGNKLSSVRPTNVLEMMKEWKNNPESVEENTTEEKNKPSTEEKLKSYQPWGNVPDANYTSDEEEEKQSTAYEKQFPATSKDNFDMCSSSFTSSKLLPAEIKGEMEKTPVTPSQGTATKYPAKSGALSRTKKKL
assay comment: radiometric filter-binding kinase assay, Kinase HotSpot
condition info: compound 0.5 µM; ATP 10 µM
A number alone suffices; assume %.

For orientation, consider the following solved cases.
>  <input smiles>
CCN(CC)CCCCN1c2ccccc2Oc2ccc(Cl)cc21

>  <measured value>
89.9

$$$$
>  <input smiles>
O=C(O)/C=C/c1cc(Br)c(Br)c(Br)c1Br

>  <measured value>
67.9

$$$$

query: GET /values?readout=residual activity&item= CC(=O)O/N=C1\C(=C2\C(=O)Nc3cc(Br)ccc32)Nc2ccccc21
result: 70.3

====

tgt: MAP4K2 (human) (UniProt Q12851)
Sequence (Q12851 whole entry, looked up): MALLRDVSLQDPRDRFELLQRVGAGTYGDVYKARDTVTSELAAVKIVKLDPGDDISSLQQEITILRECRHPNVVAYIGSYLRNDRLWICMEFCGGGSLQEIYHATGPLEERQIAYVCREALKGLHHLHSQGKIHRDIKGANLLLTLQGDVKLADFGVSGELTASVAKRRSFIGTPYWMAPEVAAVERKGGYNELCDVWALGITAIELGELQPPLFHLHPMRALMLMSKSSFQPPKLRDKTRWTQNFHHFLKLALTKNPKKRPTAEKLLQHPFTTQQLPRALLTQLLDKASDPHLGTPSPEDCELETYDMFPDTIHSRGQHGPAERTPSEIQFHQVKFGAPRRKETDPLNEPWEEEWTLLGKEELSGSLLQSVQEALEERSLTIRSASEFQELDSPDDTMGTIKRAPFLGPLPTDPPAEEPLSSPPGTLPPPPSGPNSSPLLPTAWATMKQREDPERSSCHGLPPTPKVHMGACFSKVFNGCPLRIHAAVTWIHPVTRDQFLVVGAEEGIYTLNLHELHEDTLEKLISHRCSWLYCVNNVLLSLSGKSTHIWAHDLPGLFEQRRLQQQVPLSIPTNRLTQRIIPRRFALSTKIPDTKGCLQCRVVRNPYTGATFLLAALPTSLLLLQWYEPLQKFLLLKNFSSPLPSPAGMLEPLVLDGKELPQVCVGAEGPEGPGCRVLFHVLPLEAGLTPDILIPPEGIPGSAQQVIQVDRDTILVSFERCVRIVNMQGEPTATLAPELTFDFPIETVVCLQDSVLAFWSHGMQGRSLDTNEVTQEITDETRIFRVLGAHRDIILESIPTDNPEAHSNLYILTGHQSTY
assay comment: radiometric filter-binding kinase assay, Kinase HotSpot
condition info: compound 0.5 µM; ATP 10 µM
readout name: residual activity (%)
A number alone suffices; assume %.

query: GET /values?readout=residual activity&item= O=C1NC(=O)C(c2cn(CCCO)c3ncccc23)=C1c1cnccn1
result: 67.4

query: GET /values?readout=residual activity&item= O=C1Nc2ccccc2/C1=C1/Nc2ccccc2/C1=N\OCCC(O)CO (stereo not drawn)
result: 51.7

query: GET /values?readout=residual activity&item= O=C1NC(=O)C(c2c[nH]c3ccccc23)=C1c1c[nH]c2ccccc12
result: 84.9
